Kindly supply the reported MIC values for the records listed here.
- Tested on: Staphylococcus epidermidis
- protocol description: Antibacterial activity against Staphylococcus epidermidis ATCC12228 assessed as bacterial growth inhibition after 24 hrs by broth dilution method
- Format: functional
- condition label: ATCC12228, 24 h
Numbers only, in µg/mL.

COC(=O)c1c(O)cc(OC)cc1/C=C/c1ccccc1F = 128
COc1cc(/C=C/c2cc(OC)c(OC)c(OC)c2)c(C(=O)O)c(O)c1CC=C(C)C = 32
COc1cc(O)c(C(=O)O)c(/C=C/c2cccc(F)c2)c1 = 64
COC(=O)c1c(/C=C/c2ccc(F)cc2F)cc(OC)c(CC=C(C)C)c1O = 64

The record that follows has no MIC shown yet.
Response field MIC (Staphylococcus epidermidis) for item `COc1cc(/C=C/c2cccc(C#N)c2)c(C(=O)O)c(O)c1CC=C(C)C` : 2
